- Test system: P. falciparum, strain NF54, erythrocytic stages
- ASSAY COMMENT: In vitro growth inhibition assay of Plasmodium falciparum NF54 ([3H]-hypoxanthine incorporation)
- Format: cell-based
- DETAILS: based on IC50 values in nmol/L; DataWarrior 5.5.0
Exercise: for every item that follows, state its recorded lipophilic ligand efficiency (LLE), P. falciparum.
Response field accepts a number only; no unit should be typed.

lipophilic ligand efficiency (LLE), P. falciparum reported for this molecule COC(=O)CC1(O)C=CC(=O)C=C1 [Compound 4a] : 6.1690

lipophilic ligand efficiency (LLE), P. falciparum reported for this molecule COC(=O)CCC1(O)C=CC(=O)C=C1 [Compound 4g] : 4.7892

lipophilic ligand efficiency (LLE), P. falciparum reported for this molecule COC(=O)CC1(O)C=CC(=O)C(F)=C1 (stereo not drawn) [Compound 4b] : 6.1451

lipophilic ligand efficiency (LLE), P. falciparum reported for this molecule COC(=O)CC1(O)C=C(Br)C(=O)C(Br)=C1 [Compound 4f] : 5.4625

lipophilic ligand efficiency (LLE), P. falciparum reported for this molecule COC(=O)CC1(O)C=CC(=O)C(Br)=C1 (stereo not drawn) [Compound 4d] : 6.1264

lipophilic ligand efficiency (LLE), P. falciparum reported for this molecule O=C1C=CC(=O)c2cc(F)c(F)cc21 [Compound 5e] : 4.5208

* * *

- Tested on: T. brucei rhodesiense, strain STIB900 trypomastigote forms
- ASSAY COMMENT: In vitro growth inhibition assay of Trypanosoma brucei rhodesiense STIB900 (Alamar blue)
- Type: cell-based
- DETAILS: Trypanosoma brucei; strain STIB900 trypomastigote forms; means of two to three measurements, SD <5%; read-out: T. b. rhod. IC50
- Protocol: Trypanocidal activity was determined in vitro against axenically grown bloodstream-forms of T. b. rhodesiense STIB900 as described in Refs. [76, 77] and detailed in the Supplementary Materials. Parasite proliferation was assessed via fluorescence of the redox-sensitive dye resazurin (Alamar blue). The drug melarsoprol was used as the positive control. […] 1.2 In vitro growth inhibition assay of Trypanosoma brucei rhodesiense […]
Please respond with yes when measured IC50 is strictly beneath 50 nM, and with no in all other cases.

input: IC50 strictly < 50 nM for this compound? COC(=O)CC1(O)C=CC(=O)C(Cl)=C1 (centres unmarked) [Compound 4c]
output: yes

input: IC50 strictly < 50 nM for this compound? COC(=O)CCC1(O)C=CC(=O)C=C1 [Compound 4g]
output: no

input: IC50 strictly < 50 nM for this compound? COC(=O)CC1(O)C=CC(=O)C(F)=C1 (centres unmarked) [Compound 4b]
output: no

input: IC50 strictly < 50 nM for this compound? COC(=O)CC1(O)C=CC(=O)C(Br)=C1 (centres unmarked) [Compound 4d]
output: yes

input: IC50 strictly < 50 nM for this compound? COC(=O)CC1(O)C=C(Br)C(=O)C(Br)=C1 [Compound 4f]
output: yes

input: IC50 strictly < 50 nM for this compound? COC(=O)/C=C/C1(O)C=CC(=O)C=C1 [Compound 4i]
output: no

input: IC50 strictly < 50 nM for this compound? COC(=O)CC1(O)C=C(Cl)C(=O)C(Cl)=C1 [Compound 4e]
output: yes

input: IC50 strictly < 50 nM for this compound? O=C1C=CC(=O)c2cc(F)c(F)cc21 [Compound 5e]
output: no

input: IC50 strictly < 50 nM for this compound? O=C1C=CC(=O)c2cc(F)ccc21 [Compound 5d]
output: no

input: IC50 strictly < 50 nM for this compound? COC(=O)CC1(O)C=CC(=O)C=C1 [Compound 4a]
output: no

input: IC50 strictly < 50 nM for this compound? O=C1C=CC2(C=C1)CCC(=O)O2 [Compound 4h, 1-Oxaspiro [4.5]deca-6,9-diene-2,8-dione]
output: no
